// values below are GI50; system is U251 CNS

molecule: N/N=C(/Cc1nc2ccc(C(=O)c3ccccc3)cc2[nH]c1=O)C(=O)Nc1ccc([N+](=O)[O-])cc1[N+](=O)[O-]
GI50: > 100 µM
--
molecule: COC(=O)c1cc2c3ccccc3n3c2c(n1)-c1[nH]c2ccccc2c(=O)c1C3
GI50: 15.2 µM
--
molecule: C=CCC(N[C@H](CO)c1ccccc1)c1cn(Cc2ccccc2Cl)c(=O)n(Cc2ccccc2Cl)c1=O (some centres undefined)
GI50: 11.2 µM
--
molecule: CC(=O)[CH-]C(=O)c1ccccc1.CC(=O)[CH-]C(=O)c1ccccc1.O=S(=O)([O-])c1cc([O-])c2c([O-])cc(S(=O)(=O)[O-])cc2c1.[Na+].[Zr+4]
GI50: > 100 µM
